Molecular target: Mitogen-activated protein kinase 3 (Homo sapiens);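 further: values are mean percent inhibition of MAPK3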
Settings: at 1 µM
QUANTITY_KIND: inhibition (%)
Numeric only. Scale: %

[ask] Supply inhibition value. Item: CCn1c(-c2nonc2N)nc2c(C#CCN)ncc(OCCCN)c21
[reply] -0.18

[ask] Supply inhibition value. Item: COc1cccc(-n2ncc3c(N/N=C/c4ccncc4)ncnc32)c1
[reply] 7.65

[ask] Supply inhibition value. Item: NS(=O)(=O)c1ccc(-c2ccc3c(NC(=O)C4CC4)n[nH]c3c2)cc1
[reply] 1.36

[ask] Supply inhibition value. Item: NS(=O)(=O)c1ccc(N/C=C2\C(=O)Nc3ccc4ncsc4c32)cc1
[reply] 15.3

[ask] Supply inhibition value. Item: CCn1c(-c2nonc2N)nc2c(C#CC(C)(C)O)ncc(OC[C@@H]3CCCN3)c21
[reply] 2.32

[ask] Supply inhibition value. Item: COc1cc(C=NNc2ncnc3c2cnn3Cc2ccccc2)ccc1O
[reply] -1.19

[ask] Supply inhibition value. Item: COc1cc2c(cc1Nc1nc(Nc3ccsc3C(N)=O)c3cc[nH]c3n1)N(C(=O)CN(C)C)CCC2
[reply] 1.75
